Kp at 0.25 h by entry:
assay: Tissue distribution study in rats; assay type: in vivo, Sprague-Dawley rats; details: female, Sprague-Dawley, rat, oral; lymph; time 0.25; i.g. 10 mg/kg IMMH-010 maleate; read-out: T/P (tissue-to-plasma partition)
measured_property: Kp at 0.25 h

compound | readout_value
CC(C)OC(=O)C(CO)NCc1cc(Cl)c(OCc2cccc(-c3ccccc3)c2Br)cc1OCc1cccnc1 (centres unmarked) | 1.7
O=C(O)[C@H](CO)NCc1cc(Cl)c(OCc2cccc(-c3ccccc3)c2Br)cc1OCc1cccnc1 [YPD-29B] | 1.6

Value source: paper PMC8256334
